# one-hybrid fitness for binding NBS DNA per entry
B1: Caulobacter ParB omega fusion; a variant is named by its letters at X, in order, B8GW30 (parent)
chain: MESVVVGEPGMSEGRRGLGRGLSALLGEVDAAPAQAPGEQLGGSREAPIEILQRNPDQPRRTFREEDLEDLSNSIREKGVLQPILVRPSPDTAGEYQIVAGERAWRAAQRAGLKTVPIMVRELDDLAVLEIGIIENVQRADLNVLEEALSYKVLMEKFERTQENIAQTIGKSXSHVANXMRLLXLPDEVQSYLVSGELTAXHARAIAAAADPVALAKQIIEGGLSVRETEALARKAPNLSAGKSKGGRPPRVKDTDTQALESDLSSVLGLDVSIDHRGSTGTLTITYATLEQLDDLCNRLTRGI

# Variants of: B1
# procedure.summary: one-hybrid fitness for binding NBS DNA (the Noc-binding site; scaled: cognate 1, non-cognate 0); higher = stronger binding
# test.parameters: with NBS DNA site
Over roughly 81,000 sequences, “one-hybrid fitness for binding NBS DNA” has its median near -0.1; the highest 2% begin near 0.36. For the sample, the highest values were picked, then their nearest neighbours and some sequences at random.

# mutation.label, result.type, observed.result
rows = [
    ("HRVR", "one-hybrid fitness for binding NBS DNA", "≤ 0.2"),
]

Input line: Requested read-out: one-hybrid fitness for binding NBS DNA. Entry: `FGYR`
Output line: ≤ 0.2

Input line: Requested read-out: one-hybrid fitness for binding NBS DNA. Entry: `VRAW`
Output line: ≤ 0.2

Input line: Requested read-out: one-hybrid fitness for binding NBS DNA. Entry: `HRKR`
Output line: 0.395

Origin of the recorded values: a collection of fitness landscapes (doi:10.1016/j.celrep.2020.107928)
